These entries and their values trace back to the supplement of paper PMC8728848.

# System: Gal(b1-4)GlcNAc(b1-3)Gal(b1-3)GalNAc
# Measurement Notes: glycan array binding signal (z-score within array); higher = stronger binding
# Measurement Conditions: glycan notation: IUPAC condensed, linker removed
The sample as a whole holds a higher share of the strongest signals than the screen did.
The binders listed here are annotated with their glycan array binding signal (z-score).

Reference set, count: 3
Asked: Retrieve glycan array binding signal (z-score) measured for Epa11 (Candida glabrata) (protein) MGSSHHHHHHSSGLVPRGSHMASSNAPNYPVGCSPSVGTQLTPGLSLEVYAYPMDGNNGYCWNATYKDPEFPRSGYLKNKLLGKADGVVGPLNFLAKNKDCSPKVDTLPAGFNFPQPITVTNFTMVLFGYLAPKQSGKYTFKLLADDLLLLNLGATNAFDCCNREATKNNLGEFLAYNLWPNQDKNVTVYLEKGVYYPLRLFFNNRDGGSQLDFSYYFNDSPAPLTDFSGMFFSVPDGAECPARI and print it.
Given back: -0.415

Asked: Give me measured glycan array binding signal (z-score), please, for this binder: BC2LB (Burholderia cenocepacia), B4EH85_BURCJ (protein) MGSSHHHHHHSSGENLYFQGHMSQPFTHDDLYALLQLAGNDATAVQANGDQAVLDRMRQFMTAQLVEKLPQYDVFVDIATIPYSFDVGSWQNKVKTDAAGEVVACTVTWAGAPGVLPGAAAKFGVGAVVNYFSKATPH
Given back: -0.131

Asked: Look up glycan array binding signal (z-score) of SBD-G4S3-SBD (protein) MASIPSSASVQLDSYNYDGSTFSGKIYVKNIAYSKKVTVVYADGSDNWNNNGNIIAASFSGPISGSNYEYWTFSASVKGIKEFYIKYEVSGKTYYDNNNSANYQVSTGGGGSGGGGSGGGGSEFASIPSSASVQLDSYNYDGSTFSGKIYVKNIAYSKKVTVVYADGSDNWNNNGNIIAASFSGPISGSNYEYWTFSASVKGIKEFYIKYEVSGKTYYDNNNSANYQVST and report it.
Given back: -0.052

Now let's try a different one.
Asked: Answer with the recorded glycan array binding signal (z-score) for the binder listed here: FimD (Bordetella pertussis) (protein) MPARVISFCGAALAVWAGLAVQPAMAVDPPVDCGRALGLHFWSSASLISDQTPDGTLIGKPVVGRSLLSKSCKVPDDIKEDLSDNHDGEPVDIVLELGSNYKIRPQSYGHPGIVVDLPFGSTEETGIAIYIDFGSSPMQKVGERQWLYPQKGEVLFDVLTINGDNAEVRYQAIKVGPLKRPRKLVLSQFPNLFTYKWVFMRGTSQERVLAQGTIDTDVATSTIDLKTCRYTSQTVSLPIIQRSALTGVGTTLGMTDFQMPFWCYGWPKVSVYMSATKTQTGVDGVALPATGQAAGMASGVGVQLINGKTQQPVKLGLQGKIALPEAQQTESATFSLPMKAQYYQTSTSTSAGKLSVTYAVTLNYD
Given back: -0.264
